Would you kindly list ED50 for each of these molecules?
subject.of.test: Muscarinic acetylcholine receptor M1 (Homo sapiens) (UniProt P11229)
Sequence (P11229 whole entry): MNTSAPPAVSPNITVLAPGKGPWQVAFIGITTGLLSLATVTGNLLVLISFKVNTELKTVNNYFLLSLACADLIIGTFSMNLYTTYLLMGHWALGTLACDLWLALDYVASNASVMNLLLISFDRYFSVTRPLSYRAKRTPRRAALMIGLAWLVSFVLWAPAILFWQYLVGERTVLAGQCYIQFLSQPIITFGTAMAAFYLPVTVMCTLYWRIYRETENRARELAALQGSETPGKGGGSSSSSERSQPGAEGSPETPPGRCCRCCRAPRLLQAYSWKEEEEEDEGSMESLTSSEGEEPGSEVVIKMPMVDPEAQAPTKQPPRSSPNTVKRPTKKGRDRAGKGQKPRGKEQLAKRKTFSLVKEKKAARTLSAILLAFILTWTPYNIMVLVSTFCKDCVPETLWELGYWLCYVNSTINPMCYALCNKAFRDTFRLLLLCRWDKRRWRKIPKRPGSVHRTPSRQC
test.conditions: NIH3T3
Description: Agonistic efficacy in human m1 muscarinic receptor expressed with the marker gene beta-galactosidase in NIH 3T3 cells.
Reply numerically in µM, unit not repeated.

Answer with ED50 of C/C(C#Cc1ccc(F)cc1)=C/CO/N=C1/CN2CCC1C2 (stereo unspecified) measured for Muscarinic acetylcholine receptor M1 (Homo sapiens) (UniProt P11229).
0.048

Please report the measured ED50 for C#C/C(C)=C/CO/N=C1\CN2CCC1C2 (stereo unspecified) tested on Muscarinic acetylcholine receptor M1 (Homo sapiens) (UniProt P11229).
0.085

Provide ED50, system Muscarinic acetylcholine receptor M1 (Homo sapiens) (UniProt P11229), entry COc1ccc(C#C/C(C)=C\CO/N=C2\CN3CCC2C3)cc1OC (stereo unspecified)
0.055

State, for Muscarinic acetylcholine receptor M1 (Homo sapiens) (UniProt P11229), measured ED50 of the molecule listed here: C/C(C#Cc1ccc(Cl)c(Cl)c1)=C\CO/N=C1\CN2CCC1C2 (stereo unspecified)
0.398

Provide the reported ED50 (system: Muscarinic acetylcholine receptor M1 (Homo sapiens) (UniProt P11229)) for C/C(C#Cc1ccccc1)=C/CO/N=C1/CN2CCC1C2 (stereo unspecified)
0.12

Provide ED50, recorded with Muscarinic acetylcholine receptor M1 (Homo sapiens) (UniProt P11229), of C/C(C#Cc1ccc(F)cc1)=C\CO/N=C1\CN2CCC1C2 (stereo unspecified)
0.0315
